- experimentalDetails: Accelerated stability test (40° C., RH75%), change in degradation product CNS-7054
- Type: physicochemical
- condition: 6 months, after packaging, degradation product CNS-7054
recordedMetric: Change in CNS-7054, Accelerated experiment (40° C., RH75%)

The following compounds have reported results that may help.
>>> readoutvalue("CCOC(=O)CCC1N=C(c2ccccn2)c2cc(Br)ccc2-n2c(C)cnc21.Cl (centres unmarked) [Ethyl, 2.8% glycine]")
"Not increased"
>>> readoutvalue("COC(=O)CCC1N=C(c2ccccn2)c2cc(Br)ccc2-n2c(C)cnc21.Cl (centres unmarked) [Methyl, 3% glycine]")
"Not increased"
>>> readoutvalue("CCOC(=O)CCC1N=C(c2ccccn2)c2cc(Br)ccc2-n2c(C)cnc21.Cl (centres unmarked) [Ethyl, 4% valine]")
"Increased by 0.01%"
>>> readoutvalue("CCOC(=O)CCC1N=C(c2ccccn2)c2cc(Br)ccc2-n2c(C)cnc21.Cl (centres unmarked) [Ethyl, 5% alanine]")
"Increased by 0.01%"
>>> readoutvalue("COC(=O)CCC1N=C(c2ccccn2)c2cc(Br)ccc2-n2c(C)cnc21.Cl (centres unmarked) [Methyl, 5% alanine]")
"Increased by 0.01%"
>>> readoutvalue("COC(=O)CCC1N=C(c2ccccn2)c2cc(Br)ccc2-n2c(C)cnc21.Cl (centres unmarked) [Methyl, None]")
"Not increased"

Okay, next one:
Task: What Change in CNS-7054, Accelerated experiment (40° C., RH75%) value was documented for this compound, CCOC(=O)CCC1N=C(c2ccccn2)c2cc(Br)ccc2-n2c(C)cnc21.Cl (centres unmarked) [Ethyl, 1.7% glycine] ?
Result: Not increased
